- target-desc: GABAA receptors (Rattus norvegicus, UniProt P18508+P62813+P63138)
- Construct: Single pyramidal neurons from the hippocampal CA3 area or Purkinje cells from sagittal slices of the cerebellum were isolated; endogenous in cells; host or cells: acutely isolated Purkinje cells from cerebellar slices of Wistar rats, 11-14 days old
- Sequence (P62813 28-455): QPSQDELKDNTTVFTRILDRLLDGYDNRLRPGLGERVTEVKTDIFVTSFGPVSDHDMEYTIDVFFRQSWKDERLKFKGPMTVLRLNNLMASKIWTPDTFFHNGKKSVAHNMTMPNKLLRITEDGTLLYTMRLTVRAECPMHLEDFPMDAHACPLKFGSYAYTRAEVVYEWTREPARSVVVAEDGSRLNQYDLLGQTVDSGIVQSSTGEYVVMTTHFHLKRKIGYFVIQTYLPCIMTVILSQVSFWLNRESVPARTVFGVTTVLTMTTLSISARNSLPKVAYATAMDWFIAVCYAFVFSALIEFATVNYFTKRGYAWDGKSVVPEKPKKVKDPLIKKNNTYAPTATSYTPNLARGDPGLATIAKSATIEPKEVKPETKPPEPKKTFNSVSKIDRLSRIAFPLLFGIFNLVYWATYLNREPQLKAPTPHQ
- Sequence (P63138 25-474 limits assumed): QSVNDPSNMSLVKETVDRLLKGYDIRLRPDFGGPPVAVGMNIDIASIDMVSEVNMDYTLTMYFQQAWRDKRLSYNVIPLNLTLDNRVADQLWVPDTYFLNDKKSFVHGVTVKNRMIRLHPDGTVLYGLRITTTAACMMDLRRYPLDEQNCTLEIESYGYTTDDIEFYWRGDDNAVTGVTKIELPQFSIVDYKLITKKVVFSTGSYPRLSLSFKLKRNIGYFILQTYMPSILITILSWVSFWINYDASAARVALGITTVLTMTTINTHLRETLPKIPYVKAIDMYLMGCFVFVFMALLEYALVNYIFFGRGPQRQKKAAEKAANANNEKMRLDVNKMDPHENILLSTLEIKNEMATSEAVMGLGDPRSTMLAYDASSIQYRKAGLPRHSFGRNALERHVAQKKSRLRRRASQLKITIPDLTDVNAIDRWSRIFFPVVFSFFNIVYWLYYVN
- Sequence (P18508 39-466): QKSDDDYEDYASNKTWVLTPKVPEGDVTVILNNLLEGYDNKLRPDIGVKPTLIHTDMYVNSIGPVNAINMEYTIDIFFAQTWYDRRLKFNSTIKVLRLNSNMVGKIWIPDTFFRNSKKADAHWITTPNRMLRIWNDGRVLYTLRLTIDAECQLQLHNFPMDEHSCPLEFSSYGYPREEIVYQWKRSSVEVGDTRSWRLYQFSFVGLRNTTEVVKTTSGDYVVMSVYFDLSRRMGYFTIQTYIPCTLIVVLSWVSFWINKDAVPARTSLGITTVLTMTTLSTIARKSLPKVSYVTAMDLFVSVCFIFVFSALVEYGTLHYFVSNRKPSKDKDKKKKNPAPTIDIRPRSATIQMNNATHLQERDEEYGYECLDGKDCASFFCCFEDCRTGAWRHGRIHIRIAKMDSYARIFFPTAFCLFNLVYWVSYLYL
- Format: cell-based
- recorded-conditions: 50 μM of steroid; 5 μM GABA
Reported Ipeak/Ipeak control of IGABA values for the following molecules.
metric: Ipeak/Ipeak control of IGABA

> print(dat)
                                   molecule                               target.desc                        metric  value.reported
1  C[C@]12CC[C@H](O)CC1=CC[C@@H]1[C@@H]2CC[C@]2(C)C(=O)CC[C@@H]12 [Compound 8, 3β-Hydroxy-androst-5-en-17-one]  GABAA receptors (Rattus norvegicus, UniProt P18508+P62813+P63138)  Ipeak/Ipeak control of IGABA            0.75
2  C[C@]12CCC(=O)C=C1CC[C@@H]1[C@@H]2CC[C@]2(C)C(=O)CC[C@@H]12  GABAA receptors (Rattus norvegicus, UniProt P18508+P62813+P63138)  Ipeak/Ipeak control of IGABA            0.77
3  C[C@]12CC[C@H]3[C@@H](CCC4=CC(=O)CC[C@@]43C)[C@@H]1CC[C@H]2O [Compound 5, 17α-Hydroxyandrost-4-en-3-one]  GABAA receptors (Rattus norvegicus, UniProt P18508+P62813+P63138)  Ipeak/Ipeak control of IGABA            1.12
4  C[C@]12CC[C@H]3[C@@H](CCC4=CC(=O)CC[C@@]43C)[C@@H]1CC[C@@H]2O [Compound 1, 17β-Hydroxyandrost-4-en-3-one]  GABAA receptors (Rattus norvegicus, UniProt P18508+P62813+P63138)  Ipeak/Ipeak control of IGABA            0.86
